- Read-out: flavin-containing dimethylaniline monooxygenases 3 (FMO3), FMO3 (gene 2328)
- RUN_DESCRIPTION: LTEA_HepaRG_FMO3: Life Technologies and Expression Analysis (LTEA) Assay for flavin-containing dimethylaniline monooxygenases 3 (FMO3) using HepaRG (AID 2283453)
- CONDITION_INFO: mRNA level, 48 h; actives raise or lower the signal
The source made the active and inactive calls. Rule for the calls: active = hit-call score of the fitted dose curve at least 0.9, where 1 is the maximum; inactive = score below 0.9.
Hi there, use one of these labels in your reply, thanks! 1 (active), 0 (inactive)

Consider the worked cases shown below.
MOLECULE	LABEL
CCC(=O)C(CC(C)N(C)C)(c1ccccc1)c1ccccc1 (configuration not stated)	1
CCOP(=S)(OCC)Oc1nc(Cl)c(Cl)cc1Cl	0
CCN1CCC2(CC1)COc1cc3c(cc12)N(C(=O)c1ccc(-c2ccc(-c4nnc(C)o4)cc2C)cc1)CC3	1
ClC1(Cl)C2(Cl)C3(Cl)C4(Cl)C(Cl)(Cl)C5(Cl)C3(Cl)C1(Cl)C5(Cl)C24Cl (configuration not stated)	0

Each molecule tested received a call. Report the one for `NC(=O)O` . 0

Each molecule tested received a call. Report the one for O=C1C2(Cl)C3(Cl)C4(Cl)C(Cl)(Cl)C5(Cl)C3(Cl)C1(Cl)C5(Cl)C24Cl (configuration not stated) . 1

Each molecule tested received a call. Report the one for `C=CC(=O)OCCCCCC(C)C` . 0

* * *

- Read-out: CD40, CD40 (gene 958)
- RUN_DESCRIPTION: BSK_SAg_CD40: BioMAP Diversity Plus: SAg Assay for CD40 Biomarker Activity (AID 2283088)
- CONDITION_INFO: primary human HUVEC with PBMC; actives raise or lower the signal
The source made the active and inactive calls. How the source made its calls: active means hit-call score of the fitted dose curve at least 0.9, where 1 is the maximum; inactive means score below 0.9.
Hi there, use one of these labels in your reply, thanks! active, inactive

MOLECULE	LABEL
CC(=O)C(Cl)C(=O)N(C)C (stereo unspecified)	active

Each molecule tested received a call. Report the one for `O=c1[nH]c(=O)[nH]c(=O)[nH]1` . inactive

Each molecule tested received a call. Report the one for `ClCC(Cl)CCl` . inactive

Each molecule tested received a call. Report the one for `O=C(O)CCC(F)(C(F)(F)F)C(F)(F)F` . inactive

Each molecule tested received a call. Report the one for `CC(C)(C)c1cc(O)ccc1O` . active

Each molecule tested received a call. Report the one for `CCCCCCCCc1ccc(O)cc1` . active

* * *

- TEST_SYSTEM: Nuclear respiratory factor 1 (Homo sapiens)
- RUN_DESCRIPTION: ATG_NRF1_CIS: Attagene CIS-FACTORIAL HepG2 Assay for human Nuclear Respiratory Factor 1 (NRF1) Orphan Gene (AID 2282987)
- CONDITION_INFO: HepG2 NRF1 cis-element reporter, Attagene multiplex; actives raise or lower the signal
The source made the active and inactive calls. How the source made its calls: active means hit-call score of the fitted dose curve at least 0.9, where 1 is the maximum; inactive means score below 0.9.

QUERY_SMILES	outcome
N#CCc1ccc(Cl)cc1	inactive
Nc1ccc(N=Nc2ccc(-c3ccc(N=Nc4c(S(=O)(=O)O)cc5cc(S(=O)(=O)O)c(N=Nc6ccccc6)c(O)c5c4N)cc3)cc2)c(N)c1	inactive
COC(=O)c1sccc1S(=O)(=O)NC(=O)Nc1nc(C)nc(OC)n1	inactive

* * *

- RUN_DESCRIPTION: CCTE_Shafer_MEA_acute_burst_percentage_mean: CCTE's Neural Acute Assay for Percentage of Spikes in a Burst, Shafer Lab (AID 2284017);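 note: curve fitted for loss of signal so potency reflects decreased burst percentage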
Activity calls are given as the source filed them. How the source made its calls: active means hit-call score of the fitted dose curve at least 0.9, where 1 is the maximum; inactive means score below 0.9.
RECORDED_ENDPOINT: AC50

Some solved cases for reference:
QUERY_SMILES	AC50
CCCCCCCCc1ccc(O)cc1	12.7 µM (active)
C[C@]12CCC(=O)C[C@@H]1CC[C@@H]1[C@@H]2CC[C@]2(C)[C@@H](O)CC[C@@H]12	30.5 µM (active)
CCN1CCC2(CC1)COc1cc3c(cc12)N(C(=O)c1ccc(-c2ccc(-c4nnc(C)o4)cc2C)cc1)CC3	27.3 µM (active)

We next turn to a different molecule, shown below.
Specify AC50 for `CC(=O)[O][Hg][c]1ccccc1` and stop. 1.13 µM (active)
